ASSAY_NAME: Antagonist activity at Hedgehog receptor expressed in 10t1/2 cells by Gli-luciferase reporter gene assay
Assay type: functional, cell-based
Reported IC50 values are given for each entry in this list.
MEASURED_ATTRIBUTE: IC50 (µM)

# MOLECULE, MEASURED_ATTRIBUTE, UNITS_TEXT, QUALIFIER, OBSERVED_VALUE
records = [
    ("CC(C)n1c(CNC(=O)Nc2cccc(C(F)(F)F)c2)nc2ccccc2c1=O", "IC50", "µM", "=", 4.3),
    ("O=C(NCc1nc2ccccc2c(=O)n1-c1ccc(F)cc1)Nc1cccc(C(F)(F)F)c1", "IC50", "µM", "=", 0.7),
    ("COc1cc(NC(=O)NCc2nc3ccccc3c(=O)n2-c2ccc(F)cc2)cc(C(F)(F)F)c1", "IC50", "µM", "=", 0.25),
    ("CC(NC(=O)Nc1cccc(C(F)(F)F)c1)c1nc2ccccc2c(=O)n1-c1ccc(F)cc1 (stereo not given)", "IC50", "µM", "=", 4.7),
    ("CCc1nc2ccccc2c(=O)n1-c1ccc(F)cc1", "IC50", "µM", ">", 10),
]

----------
Reported pIC50 values are given for each entry in this list.
ASSAY_NAME: Antagonist activity at Hedgehog receptor expressed in 10t1/2 cells by Gli-luciferase reporter gene assay
Type: functional, cell-based
pIC50: −log10 of the molar value.

# COMPOUND, QUALIFIER, pIC50
rows = [
    ("CN(Cc1nc2ccccc2c(=O)[nH]1)C(=O)Nc1cccc(C(F)(F)F)c1", "<", 5.00),
    ("O=C(NCc1nc2ccccc2c(=O)n1-c1ccc(F)cc1)Nc1ccc(Cl)c(C(F)(F)F)c1", "=", 7.15),
    ("CNC(C)c1nc2ccccc2c(=O)n1-c1ccc(F)cc1 (stereo not given)", "<", 5.00),
    ("O=C(NCc1nc2ccccc2c(=O)n1-c1ccc(F)cc1)Nc1cc(Cl)nc(Cl)c1", "=", 6.96),
    ("CC(c1nc2ccccc2c(=O)n1-c1ccc(F)cc1)N(C)C(=O)Nc1cccc(C(F)(F)F)c1 (stereo not given)", "=", 5.85),
]
